Taken from ChEMBL document CHEMBL1629507.

target: Integrin alpha-V/beta-3 (Homo sapiens) (UniProt P05106+P06756); assay: Inhibition of human alphaVbeta3 receptor expressed in african green monkey Vero E6 cells assessed as inhibition of SNV infection in cells at 1 uM by immunofluorescent assay; type: cell-based
endpoint_label: inhibition (%)
One number for each entry, in %.

Example entries and their recorded answers appear below.
molecule: O=C(NC1CCCc2ccccc21)C(Cc1ccccc1)NS(=O)(=O)c1cccc2nsnc12 (stereo not given)
uom: %
inhibition: 0
--
molecule: Cc1cccc(CN2C(=O)c3ccccc3Sc3ccc(C(=O)NCc4cccs4)cc32)c1
uom: %
inhibition: 8.3
--
molecule: O=C(CCCn1c(=O)c2sccc2n(Cc2ccc(F)cc2)c1=O)NCc1ccco1
uom: %
inhibition: 0
--
molecule: COc1ccc(S(=O)(=O)NC(CC(=O)NCc2ccc3c(c2)OCO3)c2ccco2)cc1 (stereo not given)
uom: %
inhibition: 0
--
molecule: CCc1ccc(CNC(=O)C2CCCN(c3ncnc4onc(-c5ccc(F)cc5)c34)C2)cc1 (stereo not given)
uom: %
inhibition: 7
--
molecule: Cc1cccc(C)c1NC(=S)N/N=C\c1cn(C)c2ccc(S(=O)(=O)N3CCOCC3)cc12
uom: %
inhibition: 0
--
molecule: COc1cccc(C(CC(=O)NCCCN2CCOCC2)NS(=O)(=O)c2ccc(C)cc2)c1OC (stereo not given)
uom: %
inhibition: 0
--
molecule: COc1ccccc1C1CC(c2c(O)[nH]c(=O)n(CCc3ccccc3)c2=O)=Nc2ccccc2S1 (stereo not given)
uom: %
inhibition: 18

Could you tell me inhibition for each of these molecules? They are listed below.
1. COc1ccc(CCNC(=O)CN(CCc2ccccc2)S(=O)(=O)c2ccccc2)cc1OC
2. COc1ccc(NC(=O)C(Cc2ccccc2)NS(=O)(=O)c2cccc3cccnc23)c(OC)c1 (stereo not given)
3. CCC(Sc1nc2ccsc2c(=O)n1Cc1ccc2c(c1)OCO2)C(=O)NCc1ccco1 (stereo not given)
4. Cc1cccc(CN2C(=O)c3ccccc3Sc3ccc(C(=O)NCc4ccco4)cc32)c1
5. COc1ccc(N2CCN(C(=O)Cc3csc4nc(-c5ccc(F)cc5)cn34)CC2)cc1
6. O=C(NCCc1ccccc1)C(Cc1ccccc1)NS(=O)(=O)c1ccc(Br)cc1 (stereo not given)

1. 15.2
2. 22.5
3. 41
4. 26
5. 0
6. 6.4

---

biological target: Integrin alpha-V/beta-3 (Homo sapiens) (UniProt P05106+P06756); experiment: Inhibition of human alphaVbeta3 receptor expressed in african green monkey Vero E6 cells assessed as inhibition of SNV infection in cells at 1 uM by immunofluorescent assay; type: cell-based
I'd appreciate it if you could supply inhibition values for the items below.
Numbers only, in %.

Example compounds with recorded inhibition:
compound: O=C(CCCn1c(=O)c2sccc2n(Cc2ccc(F)cc2Cl)c1=O)NCc1ccco1
uom: %
inhibition: 12.2
//
compound: CCOC(=O)c1sc2nc(SCC(=O)NCc3ccccc3)n(Cc3ccco3)c(=O)c2c1C
uom: %
inhibition: 25.9
//
compound: COc1ccc(CCNC(=O)C(Cc2ccccc2)NS(=O)(=O)c2cccc3nsnc23)cc1OC (centres undefined)
uom: %
inhibition: 0
//
compound: CCOC(=O)C(NC(=O)/C(=C/c1ccc(Cl)cc1)NC(=O)c1ccco1)C(C)C (centres undefined)
uom: %
inhibition: 0
//
compound: CC1(C)CC(=O)c2cc(C(=O)NCCCN3CCOCC3)c(=O)n(-c3ccc(Cl)cc3)c2C1
uom: %
inhibition: 18
//
compound: O=C(O)CCCCCNC(=O)/C(=C/c1ccccc1)NC(=O)c1ccco1
uom: %
inhibition: 0
//
compound: N#Cc1ccccc1OCC(=O)N/N=C/c1cc(Br)ccc1OC(=O)c1ccccc1
uom: %
inhibition: 15
//
compound: O=C(NCCC1=CCCCC1)C(Cc1ccccc1)NS(=O)(=O)c1cccc2cccnc12 (centres undefined)
uom: %
inhibition: 19.3

Now for the compound whose inhibition we want.
# inhibition of O=C(NCc1cccnc1)C(Cc1ccccc1)NS(=O)(=O)c1cccc2nsnc12 (centres undefined) = 35
